EXPERIMENT: Half-life in mouse liver microsomes
Format: in vitro ADME
MEASUREMENT_CONTEXT: mouse, liver microsomes, read-out: H: half-life of mouse liver microsomes
Procedure: Half-life Human Microsomes: Compounds were evaluated for stability in human liver microsomes. A 10 mM stock solution of the compound being evaluated was prepared in DMSO and diluted with water:acetonitrile (1:1) to a concentration of 1 mM. […] To prepare the sample mixture to be evaluated, 25 μL incubation mixture was combined with 200 μL of acetonitrile containing internal standard and vortexed for 5 min at 1200 rpm, then centrifuged for 10 min at 4000 rpm. […]
ASSAY_READOUT: log10 of half-life at 1 µM (log10 of the value in h)
Log10 applied to half-life at 1 µM; unit prior to transform: h.

Use the examples below as a reference point.
{"columns": ["COMPOUND", "NUMERIC_RESULT"],
 "data": [
  ["CC1CC(O)CC(C)N1C(=O)c1ccc(-c2cncc(-c3ccnc(C(C)(C)C)c3)c2)c(Cl)c1 (centres unmarked)", -0.10],
  ["CC(C)NS(=O)(=O)Nc1ccc(-c2cncc(-c3ccnc(C(C)(C)C)c3)c2)c(Cl)c1", 0.47],
  ["O=C(c1ccc(-c2cncc(-c3ccnc(C4CC4)c3)c2)c(Cl)c1)N1CC2CCC(C1)C2O (centres unmarked)", -0.15],
  ["CC(C)(C)c1cc(-c2cncc(-c3ccc(C(=O)N4CC(C(C)(C)O)C4)cc3Cl)c2)ccn1", -0.68],
  ["CC(C)OC(=O)Nc1ccc(-c2cncc(-c3ccnc(C(C)(C)O)c3)c2)c(Cl)c1", 0.30],
  ["CC1(O)CCN(C(=O)c2ccc(-c3cncc(-c4ccnc(C(C)(C)C)c4)c3)c(Cl)c2)C1 (centres unmarked)", -0.33]
]}

# log10 of half-life at 1 µM of CC(C)(C)c1cc(-c2cncc(-c3ccc(C(=O)N4CCC(O)C(O)C4)cc3Cl)c2)ccn1 (centres unmarked) [drawing 419] = 0.05

Measured log10 of half-life at 1 µM of "CC(C)OC(=O)N(C)c1ccc(-c2cncc(-c3ccnc(C(C)(C)C)c3)c2)c(Cl)c1" : 0.24

# compound "O=C(c1ccc(-c2cncc(-c3ccnc(C4CC4)c3)c2)c(Cl)c1)N1CCC[C@H]1CO" ; its log10 of half-life at 1 µM = 0.05

Field log10 of half-life at 1 µM (entry CC(C)(C)c1cc(-c2cncc(-c3ccc(C(=O)N4CCC(O)C(F)(F)C4)cc3Cl)c2)ccn1 (centres unmarked) ) reads 0.17

Briefly, log10 of half-life at 1 µM measured for "CC(C)(C)c1cc(-c2cncc(-c3ccc(C(=O)N4CCC[C@@H]4CO)cc3Cl)c2)ccn1" : -0.27

For record "O=C(c1ccc(-c2cncc(-c3ccnc(C4CC4)c3)c2)c(Cl)c1)N1CCC(O)CC1" the listed log10 of half-life at 1 µM is -0.04

Memo: "CS(=O)(=O)Nc1ccc(-c2cncc(-c3ccnc4c3OCCO4)c2)c(Cl)c1" , reported log10 of half-life at 1 µM: 0.24

Measured log10 of half-life at 1 µM, "CC(C)(C)c1cc(-c2cncc(-c3ccc(C(=O)N4CCC(F)CC4)cc3Cl)c2)ccn1" : -0.74
